Parameter EC50, Assay 5: antagonism of CD95L-T4-induced apoptosis on Jurkat A3 cells: see the listing below.
system_under_test: T1, APG293 (human CD95L-T4) (human)
T1 chain: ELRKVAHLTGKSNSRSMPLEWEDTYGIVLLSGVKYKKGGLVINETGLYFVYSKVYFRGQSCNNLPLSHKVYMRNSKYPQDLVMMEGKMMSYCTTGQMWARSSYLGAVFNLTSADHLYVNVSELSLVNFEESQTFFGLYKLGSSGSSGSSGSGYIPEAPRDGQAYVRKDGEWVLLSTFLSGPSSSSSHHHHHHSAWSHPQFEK
assay_info: cell-based or functional assay
Respond numerically; units are µg/mL and should not be typed.

# binder scFv-minibody SEQ ID 48 (scFv) scFv: QSLEESGGDLVKPGGTLTLTCTTSGFSFSDHYWMCWVRQAPGKGLEWIACIYTADSDSYYASWAKGRFTISKTSSTTVTLQMTSLTAADTATYFCARNGAYAGGPYGDLWGPGTLVTVSGGGSGGGSGGGSGGGSDIVMTQTPSSVEAAVGGTVTIKCQASQSIRTSLVWYQQKPGQPPKLLIYKASDLPSGVPSRFKGSGSGTQFTLTISDLESADAATYYCQSYDFRDTINNGHSFGGGTEVVVKGSGSSGQPREPQVYTLPPSREEMTKNQVSLTCLVKGFYPSDIAVEWESQGSPENNYKTTPPVLDSDGSFFLYSKLTVDKSRWQQGNVFSCSVMHEALHNHYTQKSLSLSPGSSSSSSAWSHPQFEK ; its EC50, Assay 5: antagonism of CD95L-T4-induced apoptosis on Jurkat A3 cells = 0.0844

# binder scFv-minibody SEQ ID 49 (scFv) scFv: EVQLVESGGGLVQPGGSLRLSCAASGFSFSDHYWMCWVRQAPGKGLEWVACIYTADSDSYYASWAKGRFTISKDSSKNTLYLQMNSLRAEDTAVYYCARNGAYAGGPYGDLWGQGTLVTVSGGGSGGGSGGGSGGGSDIQMTQSPSSLSASVGDRVTITCKASQSIRTSLVWYQQKPGKAPKLLIYKASDLPSGVPSRFSGSGSGTDFTLTISSLQPEDFATYYCQSYDFRDTINNGHSFGQGTKVEIKGSGSSGQPREPQVYTLPPSREEMTKNQVSLTCLVKGFYPSDIAVEWESQGSPENNYKTTPPVLDSDGSFFLYSKLTVDKSRWQQGNVFSCSVMHEALHNHYTQKSLSLSPGSSSSSSAWSHPQFEK ; its EC50, Assay 5: antagonism of CD95L-T4-induced apoptosis on Jurkat A3 cells = 0.117

# binder scFv-minibody SEQ ID 37 (scFv) scFv: QSLEESGGDLVKPGASLTLTCTASGFSFSSGYDMCWVRQAPGKGLEWIACIDTDNDATYYASWAKGRFTISKPSSTTVLLQITSLTAADTATYFCATTHGDYVAFKLWGPGTLVTVSGGGSGGGSGGGSGGGSQVLTQTASSVSAAVGGTVTINCQSSQSVYKNNDLSWYQQKPRQPPKLLIYQASKLASGVPSRFKGSGSGTQFTLTIGDLESDDGATYYCAGGYTASIYAFGGGTEVVGSGSSGQPREPQVYTLPPSREEMTKNQVSLTCLVKGFYPSDIAVEWESQGSPENNYKTTPPVLDSDGSFFLYSKLTVDKSRWQQGNVFSCSVMHEALHNHYTQKSLSLSPGSSSSSSAWSHPQFEK ; its EC50, Assay 5: antagonism of CD95L-T4-induced apoptosis on Jurkat A3 cells = 0.113

# binder scFv-minibody SEQ ID 38 (scFv) scFv: EVQLVESGGGLVQPGGSLRLSCAASGFSFSSGYDMCWVRQAPGKGLEWVACIDTDNDATYYASWAKGRFTISKDSSKNTLYLQMNSLRAEDTAVYYCARTHGDYVAFKLWGQGTLVTVSGGGSGGGSGGGSGGGSDIQMTQSPSSLSASVGDRVTITCQSSQSVYKNNDLSWYQQKPGKAPKLLIYQASKLASGVPSRFSGSGSGTDFTLTISSLQPEDFATYYCAGGYTASIYAFGQGTKVEIKGSGSSGQPREPQVYTLPPSREEMTKNQVSLTCLVKGFYPSDIAVEWESQGSPENNYKTTPPVLDSDGSFFLYSKLTVDKSRWQQGNVFSCSVMHEALHNHYTQKSLSLSPGSSSSSSAWSHPQFEK ; its EC50, Assay 5: antagonism of CD95L-T4-induced apoptosis on Jurkat A3 cells = 0.0957
